Target: PPAR-α (Peroxisome Proliferator Activated Receptor-alpha) (Homo sapiens)
Construct: expressed in transfected cells; host or cells: CV-1 monkey kidney epithelial cells (ATCC CCL 70)
Sequence (Q07869 1-468): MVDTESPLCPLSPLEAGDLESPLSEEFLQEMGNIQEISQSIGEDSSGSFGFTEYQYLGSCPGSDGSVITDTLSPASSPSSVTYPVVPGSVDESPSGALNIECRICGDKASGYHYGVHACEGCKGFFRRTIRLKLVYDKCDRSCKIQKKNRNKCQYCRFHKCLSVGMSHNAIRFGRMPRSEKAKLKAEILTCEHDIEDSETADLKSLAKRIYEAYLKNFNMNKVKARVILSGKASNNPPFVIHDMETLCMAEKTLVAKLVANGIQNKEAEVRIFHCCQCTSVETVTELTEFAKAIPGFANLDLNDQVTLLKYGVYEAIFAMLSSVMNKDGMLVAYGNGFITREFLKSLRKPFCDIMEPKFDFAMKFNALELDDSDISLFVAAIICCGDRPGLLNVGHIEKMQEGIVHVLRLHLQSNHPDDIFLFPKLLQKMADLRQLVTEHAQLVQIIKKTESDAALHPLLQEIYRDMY
Assay: Activation of PPAR-α, luciferase reporter in CV-1 cells
Assay type: cell-based
Conditions: 10 μM, 24 hours; negative control and non-treated group = 1.0
Reported PPAR-α activity values follow for various molecules
Write the number on its own, no unit after it.

[[record]]
molecule = "Oc1cc(O)c2c(c1)O[C@H](c1cc(O)c(O)c(O)c1)[C@@H](O)C2 [(−) GC, gallocatechin]"
property = "PPAR-α activity"
numeric_value = 1.1

[[record]]
molecule = "Oc1cc(O)c2c(c1)O[C@@H](c1ccc(O)c(O)c1)[C@@H](O)C2 [(+) EC, (+)epicatechin]"
property = "PPAR-α activity"
numeric_value = 1.3

[[record]]
molecule = "O=C(O[C@@H]1Cc2c(O)cc(O)cc2O[C@H]1c1ccc(O)c(O)c1)c1cc(O)c(O)c(O)c1 [CG, catechin gallate]"
property = "PPAR-α activity"
numeric_value = 1.2

[[record]]
molecule = "CCNC(=O)CC[C@H](N)C(=O)O [Theanine]"
property = "PPAR-α activity"
numeric_value = 1.8

[[record]]
molecule = "O=C(O[C@@H]1Cc2c(O)cc(O)cc2O[C@@H]1c1ccc(O)c(O)c1)c1cc(O)c(O)c(O)c1 [(−) ECG, epicatechin gallate]"
property = "PPAR-α activity"
numeric_value = 1.1

[[record]]
molecule = "Cn1cnc2c1c(=O)[nH]c(=O)n2C [Theobromine]"
property = "PPAR-α activity"
numeric_value = 2.2


Please report the measured PPAR-α activity for Oc1cc(O)c2c(c1)O[C@H](c1ccc(O)c(O)c1)[C@@H](O)C2 [(+) C, (+)catechin]
1.5

Given the molecule Oc1cc(O)c2c(c1)O[C@H](c1ccc(O)c(O)c1)[C@H](O)C2 [(−) EC, (−)epicatechin] , write its reported PPAR-α activity.
1.2

Indicate its recorded PPAR-α activity; the molecule in question is O=C(O)c1cc(O)c(O)c(O)c1 [Gallic acid]
1.3

###

Property: Type IV collagen biosynthesis (%); scope: individual molecules
Test system: type IV collagen
Experiment: Biosynthesis of type IV collagen in keratinocytes (Dot Blot)
Assay type: cell-based
Conditions: human keratinocytes, 10 ppm, 24 hours; control = 100

Consider the worked cases shown below.
[[record]]
molecule = "O=C(O[C@@H]1Cc2c(O)cc(O)cc2O[C@H]1c1cc(O)c(O)c(O)c1)c1cc(O)c(O)c(O)c1 [GCG, gallocatechin gallate]"
property = "Type IV collagen biosynthesis (%)"
result = "135%"

[[record]]
molecule = "O=C(O[C@@H]1Cc2c(O)cc(O)cc2O[C@H]1c1ccc(O)c(O)c1)c1cc(O)c(O)c(O)c1 [CG, catechin gallate]"
property = "Type IV collagen biosynthesis (%)"
result = "134%"

[[record]]
molecule = "O=C(O[C@@H]1Cc2c(O)cc(O)cc2O[C@@H]1c1cc(O)c(O)c(O)c1)c1cc(O)c(O)c(O)c1 [EGCG, epigallocatechin gallate]"
property = "Type IV collagen biosynthesis (%)"
result = "138%"


Dear colleague, please send me the reported Type IV collagen biosynthesis (%) for O=c1c(O)c(-c2cc(O)c(O)c(O)c2)oc2cc(O)cc(O)c12 when you can.
139%

Where do the numbers come from? From patent US10092493B2.
